protocol.summary: Clearance in BALB/c mouse at 5 mg/kg
Format: ADME, organism-based
condition.parameters: in vivo
measure: clearance (L/h/kg)
The response must be a number in L/h/kg with no trailing unit.

Recorded clearance (compound COc1cc(-n2cc(-c3ccc4nc(N)nc(N)c4c3)nn2)cc(OC)c1OC ): 19.6

----------
protocol.summary: Half life in BALB/c mouse at 5 mg/kg
Type: ADME, organism-based
condition.parameters: in vivo
measure: half-life (h)
Please reply with the bare figure in h and do not write the unit itself.

Entry COc1cc(-n2cc(-c3ccc4nc(N)nc(N)c4c3)nn2)cc(OC)c1OC — recorded half-life = 16.2
